# assay_text: thermal decomposition point (weight decrease starting point) by TG-DTA
# Assay type: physicochemical
# condition_notes: measured by TG-DTA
metric_name: thermal decomposition point (the weight decrease starting point)

>>> reported_value("CC(C)CCN(CCC(C)C)c1ccc([N+](=C2C=CC(=[N+](c3ccc(N(CCC(C)C)CCC(C)C)cc3)c3ccc(N(CCC(C)C)CCC(C)C)cc3)C=C2)c2ccc(N(CCC(C)C)CCC(C)C)cc2)cc1.O=S(=O)([N-]S(=O)(=O)C(F)(F)F)C(F)(F)F.O=S(=O)([N-]S(=O)(=O)C(F)(F)F)C(F)(F)F")
"around 280 °C"
>>> reported_value("CCCCN(CCCC)c1ccc([N+](=C2C=CC(=[N+](c3ccc(N(CCCC)CCCC)cc3)c3ccc(N(CCCC)CCCC)cc3)C=C2)c2ccc(N(CCCC)CCCC)cc2)cc1")
"around 280 °C"
>>> reported_value("N#CCCCN(CCCC#N)c1ccc([N+](=C2C=CC(=[N+](c3ccc(N(CCCC#N)CCCC#N)cc3)c3ccc(N(CCCC#N)CCCC#N)cc3)C=C2)c2ccc(N(CCCC#N)CCCC#N)cc2)cc1.O=S(=O)([N-]S(=O)(=O)C(F)(F)F)C(F)(F)F.O=S(=O)([N-]S(=O)(=O)C(F)(F)F)C(F)(F)F")
"around 282 °C"
>>> reported_value("CC(C)CN(CC(C)C)c1ccc([N+](=C2C=CC(=[N+](c3ccc(N(CC(C)C)CC(C)C)cc3)c3ccc(N(CC(C)C)CC(C)C)cc3)C=C2)c2ccc(N(CC(C)C)CC(C)C)cc2)cc1")
"around 282 °C"

====

Task for the reader: assign each of the following compounds its reported molar absorption coefficient (ε).
# assay_text: Comparative test of molar absorption coefficient measurement
# Type: physicochemical
# condition_notes: in dichloromethane; in M-1·cm-1
# Description: The compounds obtained in the above-mentioned Examples were subjected to the measurement of molar absorption coefficient (ε) in dichloromethane.

Prompt: Quick check: molar absorption coefficient (ε) of N#CCCCCN(CCCCC#N)c1ccc([N+](=C2C=CC(=[N+](c3ccc(N(CCCCC#N)CCCCC#N)cc3)c3ccc(N(CCCCC#N)CCCCC#N)cc3)C=C2)c2ccc(N(CCCCC#N)CCCCC#N)cc2)cc1.O=S(=O)([N-]S(=O)(=O)C(F)(F)F)C(F)(F)F.O=S(=O)([N-]S(=O)(=O)C(F)(F)F)C(F)(F)F [Compound No. 9] ?
Response: 109,000

Prompt: What about CCCCN(CCCC)c1ccc([N+](=C2C=CC(=[N+](c3ccc(N(CCCC)CCCC)cc3)c3ccc(N(CCCC)CCCC)cc3)C=C2)c2ccc(N(CCCC)CCCC)cc2)cc1 [Compound No. 1] ?
Response: 108,000

Prompt: What about CC(C)CCN(CCC(C)C)c1ccc([N+](=C2C=CC(=[N+](c3ccc(N(CCC(C)C)CCC(C)C)cc3)c3ccc(N(CCC(C)C)CCC(C)C)cc3)C=C2)c2ccc(N(CCC(C)C)CCC(C)C)cc2)cc1.O=S(=O)([N-]S(=O)(=O)C(F)(F)F)C(F)(F)F.O=S(=O)([N-]S(=O)(=O)C(F)(F)F)C(F)(F)F [Compound No. 4] ?
Response: 110,000

Prompt: What about CCCCN(CCCC)c1ccc([N+](=C2C=CC(=[N+](c3ccc(N(CCCC)CCCC)cc3)c3ccc(N(CCCC)CCCC)cc3)C=C2)c2ccc(N(CCCC)CCCC)cc2)cc1.O=S(=O)([O-])c1ccc2c(S(=O)(=O)[O-])cccc2c1O [Compound No. 152, reference compound] ?
Response: 24,500
